Consider the following sequences and their measured Relative % of Control readings.
Target: HIV-1LAI envelope gp120 (Human immunodeficiency virus type 1 group M subtype B, UniProt P03377)
Type: binding
Conditions: CXCR4 (1-18) alanine variants; mean of two syntheses and binding experiments ± average deviation; wild-type = 100%
Just the number please, in %, no unit attached.

{"sequence_entry": "MEGIAIYTSDNYTEEMGS [CXCR4 (1-18) variant S5A]", "Relative % of Control (%)": 133}
{"sequence_entry": "MAGISIYTSDNYTEEMGS [CXCR4 (1-18) variant E2A]", "Relative % of Control (%)": 36}

Q. Please give the measured Relative % of Control for this sequence: `MEGISIYTSDNATEEMGS`
A. 28

Q. Please give the measured Relative % of Control for this sequence: `MEGASIYTSDNYTEEMGS`
A. 6

---

Target: HIV-1LAI envelope gp120 (Human immunodeficiency virus type 1 group M subtype B, UniProt P03377)
Type: binding
Details: STRL33 amino terminus; 15-mer starting at the first residue of the printed sequence; background subtracted
Consider the following sequences and their measured Binding Results For Window Length (counts bound-background), 15 readings.
Just the number please, in counts, no unit attached.

{"sequence_entry": "NDSSQEEHQAFLQFS", "readout_number": 6160}
{"sequence_entry": "DYHEDYGFSSFNDSSQEE [STRL33 segment 5-22]", "readout_number": 1240}
{"sequence_entry": "DSSQEEHQAFLQFSK", "readout_number": 4588}
{"sequence_entry": "HEDYGFSSFNDSSQEEHQ", "readout_number": 947}
{"sequence_entry": "YHEDYGFSSFNDSSQEEH", "readout_number": 1357}

Q. Please give the measured Binding Results For Window Length (counts bound-background), 15 for this sequence: `SFWDSSQEEEQAFLQFSK`
A. 969

Q. Please give the measured Binding Results For Window Length (counts bound-background), 15 for this sequence: `SSQEEEQAFLQFSKV`
A. 4732

Q. Please give the measured Binding Results For Window Length (counts bound-background), 15 for this sequence: `AEHDYHEDYGFSSFNDSS`
A. 1095

---

Target: HIV-1LAI envelope gp120 (Human immunodeficiency virus type 1 group M subtype B, UniProt P03377)
Type: binding
Details: CCR5 18-mer scan; radiolabeled HIV-1LAI gp120; background subtracted
# thresholds on Counts per 20′ Average-background define classes: low: < 50 counts per 20′; mid: ≥ 50 counts per 20′ and < 90 counts per 20′; high: ≥ 90 counts per 20′

Solved entries:
{"sequence_entry": "LPLLVMVICYSGILKTLL [CCR5 segment 205-]", "group": "mid"}
{"sequence_entry": "NCKRLKSMTDIYLLNLAI [CCR5 segment 57-74]", "group": "low"}
{"sequence_entry": "VKQIAARLLPPLYSLVFI [CCR5 segment 25-42]", "group": "low"}
{"sequence_entry": "LVFFQKHIAKRFCKCCSI", "group": "mid"}
{"sequence_entry": "AKRFCKCCSIFQQEAPER [CCR5 segment 317-]", "group": "mid"}

Q. Please report the category associated with WVVAVFASLPGIIFTRSQ [CCR5 segment 153-] , nothing else.
A. mid

Q. Please report the category associated with YAAAQWDFGNTMCQLLTG [CCR5 segment 89-] , nothing else.
A. high

Q. Please report the category associated with FFIILLTIDRYLAVVHAV [CCR5 segment 117-] , nothing else.
A. mid

Q. Please report the category associated with `LGLVLPLLVMVICYSGIL` , nothing else.
A. high

Q. Please report the category associated with CKCCSIFQQEAPERASSV [CCR5 segment 321-] , nothing else.
A. mid
